- Tested on: T1, Human CD3eg linker (human)
- T1 construct: single-chain construct; also called recombinant human CD3
- T1 chain: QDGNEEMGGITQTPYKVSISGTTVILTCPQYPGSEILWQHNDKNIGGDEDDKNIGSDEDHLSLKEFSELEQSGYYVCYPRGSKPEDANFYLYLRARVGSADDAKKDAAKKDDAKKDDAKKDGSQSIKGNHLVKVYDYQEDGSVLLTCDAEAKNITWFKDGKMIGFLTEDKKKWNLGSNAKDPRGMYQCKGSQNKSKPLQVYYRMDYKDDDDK
- Protocol: SPR, vs unmutated H183/L072
Below, each entry is listed with its recorded fold change of affinity.
Note: a bare number is incomplete; add the unit.

{"Binder": "dBBDu183H A100W/dBBDu072L (antibody, name in Kabat numbering, V domains shown) VH: QVQLVESGGGLVQPGRSLRLSCAASGFTFSNAWMHWVRQAPGKGLEWVAQIKDKGNAYAAYYAPSVKGRFTISRDDSKNSIYLQMNSLKTEDTAVYYCHYVHYASWSTVLPAFGVDAWGQGTTVTVSS VL: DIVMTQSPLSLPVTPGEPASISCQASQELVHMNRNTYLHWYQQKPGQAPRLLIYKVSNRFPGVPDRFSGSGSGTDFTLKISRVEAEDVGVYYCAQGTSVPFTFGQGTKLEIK", "fold change of affinity": "1.9 fold"}

Challenge: Suppose we examine the binder dBBDu183H V100iH/dBBDu072L (antibody, name in Kabat numbering, V domains shown) VH: QVQLVESGGGLVQPGRSLRLSCAASGFTFSNAWMHWVRQAPGKGLEWVAQIKDKGNAYAAYYAPSVKGRFTISRDDSKNSIYLQMNSLKTEDTAVYYCHYVHYASASTVLPAFGHDAWGQGTTVTVSS VL: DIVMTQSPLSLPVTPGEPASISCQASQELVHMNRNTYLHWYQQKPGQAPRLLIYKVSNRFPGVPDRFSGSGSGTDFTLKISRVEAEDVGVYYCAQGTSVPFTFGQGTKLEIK ; what fold change of affinity value has been reported?
Response given: 2.2 fold

Challenge: Now consider dBBDu183H T100bY/dBBDu072L (antibody, name in Kabat numbering, V domains shown) VH: QVQLVESGGGLVQPGRSLRLSCAASGFTFSNAWMHWVRQAPGKGLEWVAQIKDKGNAYAAYYAPSVKGRFTISRDDSKNSIYLQMNSLKTEDTAVYYCHYVHYASASYVLPAFGVDAWGQGTTVTVSS VL: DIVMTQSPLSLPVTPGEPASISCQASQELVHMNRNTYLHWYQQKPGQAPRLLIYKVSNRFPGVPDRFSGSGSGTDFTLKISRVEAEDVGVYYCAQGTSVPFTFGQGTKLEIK .
Response given: 1.8 fold

Challenge: Also dBBDu183H Y97W/dBBDu072L (antibody, name in Kabat numbering, V domains shown) VH: QVQLVESGGGLVQPGRSLRLSCAASGFTFSNAWMHWVRQAPGKGLEWVAQIKDKGNAYAAYYAPSVKGRFTISRDDSKNSIYLQMNSLKTEDTAVYYCHYVHWASASTVLPAFGVDAWGQGTTVTVSS VL: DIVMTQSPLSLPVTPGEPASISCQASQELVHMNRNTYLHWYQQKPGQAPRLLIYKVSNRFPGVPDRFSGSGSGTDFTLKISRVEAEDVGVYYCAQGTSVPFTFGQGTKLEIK , if possible.
Response given: 0.2 fold

Challenge: Cool, now dBBDu183H Y97D/dBBDu072L (antibody, name in Kabat numbering, V domains shown) VH: QVQLVESGGGLVQPGRSLRLSCAASGFTFSNAWMHWVRQAPGKGLEWVAQIKDKGNAYAAYYAPSVKGRFTISRDDSKNSIYLQMNSLKTEDTAVYYCHYVHDASASTVLPAFGVDAWGQGTTVTVSS VL: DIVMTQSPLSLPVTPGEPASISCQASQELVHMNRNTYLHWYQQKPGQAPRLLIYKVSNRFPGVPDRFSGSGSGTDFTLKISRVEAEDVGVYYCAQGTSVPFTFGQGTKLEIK
Response given: 0 fold
